experimentalDetails: viability loss in pontine glioma line – cell-based, SU-DIPG-XIII, MIPE4.0, CellTiter-Glo, qHTS, dose response (AID 1347061);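 further: cells exposed to compound for 48 hours before readout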
assayConditions: CellTiter-Glo ATP luminescence
Records with an inconclusive call do not appear. Activity calls are given as the source filed them. Cut-off not given; nearly all actives show AC50 up to about 37 µM.
Your reply should match one of these outcome classes. active, inactive

substancesmiles=Cc1coc2c1C(=O)C(=O)c1c-2ccc2c(C)cccc12 assignedcategory=inactive

Query :: Which outcome did this test record for the compound O=C(O)[C@H]1O[C@H](Oc2cc3oc(-c4ccccc4)cc(=O)c3c(O)c2O)[C@H](O)[C@@H](O)[C@@H]1O ?
Result :: inactive

Query :: Could you do the same for CC(=O)Nc1nc(C)c(-c2ccc(Cl)c(S(=O)(=O)NCCO)c2)s1 , please?
Result :: active
